From: PubChem BioAssay (NCATS)

# PROTOCOL DETAILS: Quantitative High-Throughput drug screen in 47 multiple myeloma cell lines against the NCATS MIPE library collection: KMS12BM_JCRB cell viability assay (AID 1918971); also: nearly all actives have a fitted effect of over 35% in size; also: potency is read from the fitted curve at half-maximal effect
# EXPERIMENTAL CONDITIONS: KMS12BM myeloma viability, CellTiter-Glo ATP, 48 h; series mostly up to 45.8 µM
Records with an inconclusive call do not appear. The source made the active and inactive calls. Calls follow the shape of the dose curve; as a rule, active = well fitted cell-killing curve with a large enough effect; inconclusive = small, poorly fitted or top-dose-only effect, or effect the other way; inactive = no such curve, though single readings can be large or run the other way.

>  <MOLECULE>
CCC(=O)NCC[C@@H]1CCc2ccc3c(c21)CCO3

>  <Potency>
inactive

$$$$
>  <MOLECULE>
O=C(Nc1cccc(Cl)c1)Nc1ncc(CCNc2ncnc3ccsc23)s1

>  <Potency>
6.62 µM (active)

$$$$
>  <MOLECULE>
CCOC(=O)[C@H]1O[C@H]1C(=O)N[C@@H](CC(C)C)C(=O)NCCC(C)C

>  <Potency>
10.5 µM (active)

$$$$
>  <MOLECULE>
O=C1C(CCC(O)c2ccc(F)cc2)C(c2ccc(O)cc2)N1c1ccc(F)cc1 (configuration not stated)

>  <Potency>
inactive

$$$$
>  <MOLECULE>
OCCn1cc(-c2ccc3c(c2)CCC3=NO)c(-c2ccncc2)n1

>  <Potency>
inactive

$$$$
>  <MOLECULE>
CC(C)c1c(C(=O)Nc2ccccc2)c(-c2ccccc2)c(-c2ccc(F)cc2)n1CC[C@H](O)C[C@@H](O)CC(=O)O

>  <Potency>
13.2 µM (active)

$$$$
>  <MOLECULE>
O=c1cc(-c2ccc(O)c(O)c2)oc2cc(O)cc(O)c12

>  <Potency>
inactive

$$$$
